The reported numbers originate from patent US20130190217A1.

experiment: Kinematic viscosity; format: physicochemical; conditions: Table 2, 40° C.
η40° C. less than 30 mm^2/s is yes; η40° C. greater than or equal to 30 mm^2/s is no.

-- ask Field: below-cutoff. Rule: recorded η40° C. strictly less than 30 mm^2/s. Subject: CCCCCCCCCCCCCOC(=O)CCCCCCCC(=O)OCCCCCCCCCCCCC [Ditridecyl azelate]
-- reply no

-- ask Field: below-cutoff. Rule: recorded η40° C. strictly less than 30 mm^2/s. Subject: CCCCCCCCC(CCCCCC)COC(=O)CCCCCCCC(=O)OCC(CCCCCC)CCCCCCCC (centres unmarked) [Bis(2-hexyldecyl) azelate]
-- reply no

Further cases:
-- ask Field: below-cutoff. Rule: recorded η40° C. strictly less than 30 mm^2/s. Subject: CC(C)CCCCCCCCCCOC(=O)CCCCC(=O)OCCCCCCCCCCC(C)C [DITA, diisotridecyl adipate, reference compound]
-- reply yes

-- ask Field: below-cutoff. Rule: recorded η40° C. strictly less than 30 mm^2/s. Subject: CC(C)CCCCCCCOC(=O)CCCCC(=O)OCCCCCCCC(C)C [Diisodecyl adipate]
-- reply yes

-- ask Field: below-cutoff. Rule: recorded η40° C. strictly less than 30 mm^2/s. Subject: CC(C)CCCCCCCCCCOC(=O)CCCCCCCCCCC(=O)OCCCCCCCCCCC(C)C [C12D13, di(isotridecyl)dodecanedioate]
-- reply no

-- ask Field: below-cutoff. Rule: recorded η40° C. strictly less than 30 mm^2/s. Subject: CC(C)CCCCCCCCCCOC(=O)CCCCCCCC(=O)OCCCCCCCCCCC(C)C [C9D13, di(isotridecyl)nonanedioate]
-- reply no

-- ask Field: below-cutoff. Rule: recorded η40° C. strictly less than 30 mm^2/s. Subject: CC(C)CCCCCCCOC(=O)CCCCCCCC(=O)OCCCCCCCC(C)C [Diisodecyl azelate]
-- reply yes

-- ask Field: below-cutoff. Rule: recorded η40° C. strictly less than 30 mm^2/s. Subject: CCCCCCCCCCCCCCOC(=O)CCCCC(=O)OCCCCCCCCCCCCCC [Ditetradecyl adipate]
-- reply no
